Test system: giant foxtail (Setaria faberii)
method-notes: Test B pre-/postemergence plant response
Type: in vivo
condition-set: Preemergence, 250 g ai/ha; 0 to 100 scale
A collection of compounds and their measured Foxtail, Giant plant response rating
No unit in the answer, please; the number alone is enough.

The compound CCc1ccc(-n2c(-c3ccccc3)ncc(C(=O)C3=C(O)CCCC3=O)c2=O)cc1 [Compound 219] showed Foxtail, Giant plant response rating equal to 80

The compound listed as CCCn1c(-c2cccs2)ncc(C(=O)C2=C(O)CCCC2=O)c1=O [Compound 77] has a reported Foxtail, Giant plant response rating of 45

Per the record, COCCn1c(-c2cc(F)cc(F)c2)ncc(C(=O)C2=C(O)C3CCC(C3)C2=O)c1=O (centres unmarked) [Compound 243] has Foxtail, Giant plant response rating of 95

Short answer for COCCCn1c(-c2cc(F)cc(F)c2)ncc(C(=O)C2=C(O)CCCC2=O)c1=O [Compound 120] : Foxtail, Giant plant response rating was 100

Looking up CCc1ccccc1-n1c(-c2ccccc2)ncc(C(=O)C2=C(O)CCCC2=O)c1=O [Compound 255] , I found its Foxtail, Giant plant response rating recorded as 98
